molecular target: cdc2 kinase (Homo sapiens); construct: Human cdc2 kinase was prepared from nocodazole-arrested HeLa cells; endogenous in cells; experiment: cdc2 kinase inhibition assay; conditions: 0.25 mM ATP, human recombinant tau substrate
Sequence (P06493 whole entry): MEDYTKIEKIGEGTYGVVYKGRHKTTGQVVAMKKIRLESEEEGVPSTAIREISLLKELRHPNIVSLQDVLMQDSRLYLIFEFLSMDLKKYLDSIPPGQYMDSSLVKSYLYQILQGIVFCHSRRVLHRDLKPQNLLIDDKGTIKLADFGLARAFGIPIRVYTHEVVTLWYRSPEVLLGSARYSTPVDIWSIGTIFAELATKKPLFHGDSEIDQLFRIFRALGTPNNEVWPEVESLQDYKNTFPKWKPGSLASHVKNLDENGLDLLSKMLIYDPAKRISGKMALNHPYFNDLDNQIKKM
Sequence (P14635 whole entry partner): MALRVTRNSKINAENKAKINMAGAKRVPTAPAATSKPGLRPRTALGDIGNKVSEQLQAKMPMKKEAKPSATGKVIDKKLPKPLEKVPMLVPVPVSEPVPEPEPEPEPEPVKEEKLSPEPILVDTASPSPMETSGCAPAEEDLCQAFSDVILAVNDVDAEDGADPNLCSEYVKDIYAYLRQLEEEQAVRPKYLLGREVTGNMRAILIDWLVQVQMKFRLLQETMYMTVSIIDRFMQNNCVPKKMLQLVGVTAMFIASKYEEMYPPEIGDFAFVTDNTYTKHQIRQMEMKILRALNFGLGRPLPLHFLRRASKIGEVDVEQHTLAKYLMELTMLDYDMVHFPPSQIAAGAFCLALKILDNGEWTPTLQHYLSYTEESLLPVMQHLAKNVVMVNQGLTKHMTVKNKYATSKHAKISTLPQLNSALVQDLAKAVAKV
pIC50: −log10 of the molar value.
measured endpoint: pIC50

[
  {
    "compound": "COC(=O)[C@@]1(O)C[C@H]2C[C@@H]1n1c3ccccc3c3c4c(c5c6ccccc6n2c5c31)C(=O)NC4=O (relative stereo) [CIII]",
    "observed": 5.42
  },
  {
    "compound": "CNC(=O)[C@]1(O)CC2CC1n1c3ccccc3c3c4c(c5c6ccccc6n2c5c31)C(=O)NC4=O (some centres unmarked) [CII]",
    "observed": 7.36
  }
]
